- TESTED SYSTEM: CYP3A (Homo sapiens, UniProt P08684+P20815+P24462+Q9HB55)
- ASSAY OVERVIEW: Binding affinity to CYP3A in human liver microsomes assessed as inactivation constant
- Format: ADME, Microsome
MEASUREMENT LABEL: kinact (s⁻¹)

- CPD SMILES: "CCc1nc(-c2cnc(N)c(OC(F)(F)F)c2)c2ccc([C@H]3COCCN3C)cn12"
  SCALE UNIT: "s⁻¹"
  kinact: 0.00113
- CPD SMILES: "CCn1nc(-c2cnc(N)c(OC(F)F)c2)c2ccn([C@@H]3CCC(F)(F)C[C@@H]3OC)c(=O)c21"
  SCALE UNIT: "s⁻¹"
  kinact: 0.00117
